# run description: Cytotoxicity in Huh-7 cells
# Type: cell-based
# measurement setup: human, Huh-7 cells (liver)
measurement name: CC50 (µM)
One number for each entry, in µM.

Could you tell me which CC50 is on file for COC(=O)N[C@H](C(=O)N1CCC[C@H]1c1ncc(-c2ccc(-c3ccc(-c4cnc([C@@H]5CCCN5C(=O)[C@@H](NC(=O)OC)C(C)C)[nH]4)cc3)cc2)[nH]1)C(C)C [BMS-790052] ?
17

* * *

# measurement setup: both, human, plasma, po
measurement name: half-life

Could you tell me which half-life is on file for COC(=O)N[C@H](C(=O)N1CCC[C@H]1c1ncc(-c2ccc(-c3ccc(-c4cnc([C@@H]5CCCN5C(=O)[C@@H](NC(=O)OC)C(C)C)[nH]4)cc3)cc2)[nH]1)C(C)C ?
10 to 14 h

* * *

# Test system: Infectious BVDV
# run description: BVDV cell protection assay
# Assay type: cell-based, bovine viral diarrhoea virus
# measurement setup: Bovine viral diarrhea virus isolates and strains, MDBK, in Bos taurus
measurement name: EC50 (µM)
Give bare numbers, in µM.

Could you tell me which EC50 is on file for COC(=O)N[C@H](C(=O)N1CCC[C@H]1c1ncc(-c2ccc(-c3ccc(-c4cnc([C@@H]5CCCN5C(=O)[C@@H](NC(=O)OC)C(C)C)[nH]4)cc3)cc2)[nH]1)C(C)C [BMS-790052] ?
12

* * *

# Test system: HCV genotype 1a replicon (NS5A variants)
# run description: Transient replication assay, genotype 1a wild type and resistant variants
# Format: cell-based
# measurement setup: Hepatitis C virus, GETYPE1A, most resistant 1a variant, L31V
pEC50: −log10 of the molar value.
measurement name: pEC50

Could you tell me which pEC50 is on file for COC(=O)N[C@H](C(=O)N1CCC[C@H]1c1ncc(-c2ccc(-c3ccc(-c4cnc([C@@H]5CCCN5C(=O)[C@@H](NC(=O)OC)C(C)C)[nH]4)cc3)cc2)[nH]1)C(C)C ?
~7.70
